The measured values listed here are drawn from paper PMC8809517.

Biological target: T1, GFP-9S library array, motif 4 ND N98V;D124L (synthetic construct, N98V;D124L)
T1 chain: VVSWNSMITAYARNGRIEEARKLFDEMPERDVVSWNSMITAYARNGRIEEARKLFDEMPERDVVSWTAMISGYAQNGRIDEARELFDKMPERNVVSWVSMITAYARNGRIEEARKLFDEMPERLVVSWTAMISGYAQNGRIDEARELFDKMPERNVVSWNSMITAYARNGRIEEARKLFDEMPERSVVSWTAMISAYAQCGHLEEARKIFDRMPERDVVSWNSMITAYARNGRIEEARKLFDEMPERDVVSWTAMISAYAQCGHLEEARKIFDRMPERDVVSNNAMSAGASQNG
Experiment: high-throughput RNA pulldown from lysate on Ni-NTA beads; HRP: 50 mM Tris pH 8, 150 mM NaCl, 1 mM beta-mercaptoethanol, 50 ug/ml BSA, 3 ug/ml yeast RNA, 0.5% heparin; ITC and FP: Tris pH 8, 200 mM KCl, 5% glycerol; MST: 50 mM Tris pH 8, 200 mM NaCl, 1 mM DTT, BSA, heparin, 0.05% Tween 20
Conditions: tags: N-terminal His-eGFP; label: 5' Cy5
endpoint name: pKd
// pKd here means minus log10 of the molar concentration (mol/L)

- binder: "AUUACACGUGA (ssRNA) [Cy5-rpoA]"
  endpoint name: "pKd"
  observed result: 7.05

Consider AUUAGACGUGA (ssRNA) [Cy5-rpoA-G] . Its measured pKd is 6.95
